All values here come from the RNAGym collection of RNA variant scans (doi:10.1073/pnas.2313332121).

B1: TPR t1 (parent)
chain: GACCAAUCUGCCCUCAGAGCUCGAGAACAUCUUCGGAUGCAGAGGAGGCAGGCUUCGGUGGCGCGAUAGCGCCAACGUCCUCAACCUCCAAUGCAUCCCACCACAUGAUGAUGCCUGAAGAGCCUUGGUUUUUUG

- Variants of: B1
- measurement-description: polymerase ribozyme fitness, log enrichment relative to wild type (log ratio); higher = more active; in vitro selection for triplet polymerase activity
measured-property: polymerase ribozyme fitness (log ratio)

GACCAAUCUGCCCUCAGAGCUCGAGAACAUCUUCGUAUGCAGAGGAGGCAGGCUUCGGUGGCGCGAUAGCGCCAACGUCCUCAACCUCCAAUGCAUCCCACCACAUGAUGAUGCCUGAAGAGCCUUGGUGUUUUG
-2.05
GACCAAUCUGCCCUCAGAGCUCGAGAACAUCUUCGGAUGAAGAGGAGGCUGGCUUCGGUGGCGCGAUAGCGCCAACGUCCUCAACCUCCAAUGCCUCCCACCACAUGAUGAUGCCUGAAGAGCCUUGGUUUUUUG
-3.28
GACCAAUUUGCCCUCAGAGCUCGAGAACAUCUUCGGAUGCAGAGGAGGCAGGCUUCGGUGGCGCGAUAGCGCCAAAGUGCUCAACCUCCAAUGCAUCCCACCACAUGAUGAUGCCUGAAGAGGCUUGGUUUUUUG
0.407
GGCCAAUCUGCCCUCAGAGCUCGAGAACAUCUUCCGAUGCAGAGGAGGCAGGCUUCGGUGGCGCGAUAGCGCCAACGUCCUCAACCUCCAAUGCAUCCCACCACAUGAUGAUGCCUGAAGAGCAUUGGUUUUUUG
-4.18
GACCAAUCGGCCCUCAGAGCUCGAGAACAUCUUCGGAUGCAGAGGAGGCAGGCUUCGGUGCCGCGAUAGCGCCAACGUCCUCAACCUCCAAUGCAUCCCACAACAUGAUGAUGCCUGAAGAACCAUGGUUUUUUG
-4.92
GACGAAUCUGCCCUCAGAGCUCGAGAACAUCUUCGGAUGCAGAGGAGGCAGGCUUCGGUGGCGCGAUAGCGACAACGUCCUCAACUUCCAAUGCAUCCCACCACAUGAUGACGCCUGAAGAACCUUGGUUUUUUC
-0.311
GACCAAUCUGCCCUAAGAUCUCGAGAACAUCUUCGGAUGCAGAGGAGGCAGGCUUCGGUGGCCCGAUAGCGCCAACGUCCUCAACCUCCAAUGCAUCCCACCACAUGAUGAUACCUGAAGAGCCUUGGUUUUUUC
-3.99
GACCAAUCUGCCCUCAGAGCUCGAGAACAUCUUCGGAUGCAGAGGAGGCAGGCUUCGGUGGCGCGAUAGCGCCAUGGUCCUCAACCUGUGAUGCAUCCCACCACAUGAUGAUGCCUGAAGAGCCUUGGUUUUUUG
-2.47
GACCAAUCUGCCCUCAGAGUUCGAGAACAUCUUCGGAUGCAGAGGAGGCAGGCUUCGGUGGCGCGAUAGCGCCAACGUCCUCAACCUCCAAUGCAUCCCACCACAUGAUGAUCCCUGAAGAGCCUUGGUUUUUUG
-2.2
GACUAAUCUGCCCUCAGAGCUCGAGAACAUCUUCGGAUGCAGAUGAGGCAGGCUUCGGUGACGCGAUAGCGCCAACGUCGUCAACCUCGAAUGCAUCCCACCACAUGAUGAUGUCUGAAGAGCCUUGGUUGUUUG
-7.14
GACCCAUCUGCCCUCAGAGCUCGAGAACAUCUUCGGAUGCAGAGGAGGCAGGCUUCGGUCGCGCGAUAGCGCCAACGUCCUCAACCUCCAAUGCAUCCCACCACAUGAUGAUGCCUGAAGAGCCUUGGUUUUUUG
-0.361
GACCAAUCUGCCCUCAGAGCUCGAGAACAUCUUCGGAUGCAGAGGAGGCAGGCUUCGGUGGCGCGAUAGCGCCAACGUCCUCAACCUCCAAUGCAUCCCACCACAUGAUGAUGCCUGAACAGCCUUGGUUUUUUG
1.05
GACCAAUCUGCCCUCAGAGCUCGAGAACGUCUUCGGAUGCAGAGGAGGCAGGCUUCGGUGGCGCGAUAGCGCCAACGUCCUCAACCUCCAAUGCAUCCCACAACAUGAUGAUGCCUGAAGAGCCUUGGUUUUUUG
-4.16
GACCAAUCUGCCCUCAGAGCUCGAGAACAUCUUCGGAUGCAGAGGAGGCAGGCUUCGGUAGCGCGAUAGCGCCAACGUCCUCAACCUCCAAUGCAUCCCAGCACAUGAUGAUGCCUGAAGAGCCUUGGUUUUUUG
-1.57
GACCAAUCUGCCCUCAGAGCUCGAGAACAUCUUCGGAUGCAGAGGAGGCAGGCUUCGGUGGCGCGAUAGCGUCAACGUGCUCAACCUCCAAUGCAUCCCACCACAUGAUGAUGCCUGAAGAGCCUUGGUUUUUUG
-1.97
GACCAAUCUGCCCUCAGAGCUCGAGAACAUCUUCGGAUGCAGAGGAGCCAGGCUUCGGUGGCGCGAUAGCGCCAACGUGCUCAACCUCCAAUGCAUCCCACCACAUGAUGAUGCCUGAAGAGCCUUGGUUUUUUG
-4.27
GACCAAUCUGCCCUCAGAGCUCGAGAACAUCUUCGGAUGCAGAGGAGGCAGGAUUCGGUGGCGCGAUAGCGCCAACGUCCUCAACCUCCAAUGCAUCCCACCACAUGAUGAUGCCUGAAGAGCCUUGGUUUUUUG
0.0557
GAACAAUCUGCCCUCAGAGCUCGAGAACAUCUUCGGAUGCAGAGGUGGCUGGCUUCAGUGGCGCGAUAGCGCCAACGUCCUCAACCUCCAAUGCAUCCCACCACAUGAUGAUGCCUGAAGAGCCUUGGUUUUUUG
-4.95
GACCAAUCUGCCCUCAGAGCUCGAGAACAUCUUCGGAUGCAGAGGAGUCAGGCUUCGGUGGCGCGAUAACGCCAACGUCCUCAACCACCAAUGCAUCCCACCACAUGAUGAUGCCUGAAGAGCCUUGGUUUUUUG
-6.61
GACCAAUCUGCCCUCAGAGCUCGAGAACAUCUUCUGAUGCAGAGGAGGCAGGCUUCGGUGGCGCGACAGCGCCAACGUCCUCAACCUCCAAUGCAUCCCACCACAUGAAGAUGCUUGAAGAGCCUUGGUUUUUUG
-5.63
GACCAAUCUGCCCUCAGAGCUCGAGAACAUCUUCGGAUGCAGAGGAGGCAGGCUUCGCUGGCGCGAUAGCGCCAACGUCCUCAACCUCCAAUGCAUCCCACCACAUGAUGAUGCCUGGACAGCCUUGGUUUUUUG
-0.431
GUCCAAUCUGCCCUCAGAGCUCGAGAACAUCUUCGGAUGUAGAGGAUGCAGGCUUCGGUGGCGCGAUAGCGUCAACGUCCUCAACCUCCAAUGCAUCCCACCACAUGAUGAUGCCUGAAGAGCAUUGGUUUUUUG
-3.11
GACCAAUCUGCCCUCAGAGCUCGAGAACAUCUUCGGAUGCAGAGGAGGCAGGCUUCGGUGGCGCGAUAGCGCCAACGUCCUCAACCUCCAAUGCAACCCACCACAUGAUGAUGCCUGAAGAGCCUUGCUUUUUUG
-3.28
GACCAAUCUGCCCUCAGAGCUCGAGAACAUCUUCGGAUGCAGAGGAGGCAGGCUUCGGUGGCGCGAUAGCGCCAACGUCCUCAACCUCCAACGCAUCCCACCACAUGAUGAUGCCUGUAGAGCCUUGGUUUUUUG
-0.718
GACCAAUCUGCCCUCAGAGCUCGAGAACAUCUUCGGAUGCAGAGGAGGCAGGCUUAGGCGGCGCGAUAGCGCCAACGUCCUCAACCCCCAAUGCAUCCCACCACAUGAUGAAGCCUGAAGAGCCUUGGUUUUUUG
0.408
GACCAAUCUGCCCACAGAGCUCGAGAACAUCUUCGGAUGCAGAGGAGGCAGGCUUCGGUGACGCGAUAGCGCCAACGUCCUCAACCUCCAAUGCAUCCCACCACAUGAUGAUGCCUAAAGAGCCUUGGUUUUUUG
-4.06
